- Assay procedure: Cytotoxicity against mouse RAW264.7 cells assessed as cell viability at 5 uM incubated for 18 hrs by celltiter-glo luminescent assay relative to control
- Assay type: cell-based
- Condition summary: read-out: Activity
Quantity kind: viability at 18 h, 5 µM (%)

INSERT INTO measurements (compound, unit_of_measurement, data_value) VALUES
  ('C=C1CC[C@H]2C(C)(C)CCC[C@]2(C)[C@H]1C/C=C1\CCOC1=O', '%', 102),
  ('C=C1CC[C@H]2C(C)(C)CCC[C@]2(C)[C@H]1C/C=C1\CC(O)OC1=O (stereo partly drawn)', '%', 86.3),
  ('C=C1CC[C@H]2C(C)(C)CCC[C@]2(C)[C@H]1C/C=C1\C(=O)OC[C@H]1O', '%', 81.7);
